Target: cGMP-specific 3',5'-cyclic phosphodiesterase (Homo sapiens, UniProt O76074)
Assay: Inhibition of human PDE5A1 (535-860 residues) expressed in Escherichia coli BL21 incubated for 15 mins using [3H]-cGMP as substrate by liquid scintillation counting method
MEASURED ATTRIBUTE: IC50 (nM)

[a] COc1cccc2c1C(=O)N1CCc3c([nH]c4cccc(OC)c34)[C@H]1N2C
[b] COc1cccc2c1C(=O)N1CCc3c([nH]c4ccccc34)[C@@H]1N2C
[c] CN1c2cccc(O)c2C(=O)N2CCc3c([nH]c4ccccc34)C21 (stereo not given)
**Q:** With regard to IC50, arrange the entries in ascending order, please. # format: label list in the order the request specifies
**A:** a, c, b
